Recorded values, source ChEMBL document CHEMBL3988442.

System: Wolbachia pipientis
Test: Anti-Wolbachia Cell-Based Screen
Assay type: functional
Set-up: scale not given: in the data most compounds retested in dose-response had high values
Settings: 5 µM
Hit rate of the full screen: of about 48,000 compounds, about 13,000 (27%) showed an effect of 50% or more. This is one part of the list.
Form field: Percent Effect (one value per entry).
All answers are understood in %, so give the number only.

{"columns": ["MOLECULE", "RESULT"],
 "data": [
  ["COC(=O)c1cc2n(n1)CCCN(C(=O)Cc1c[nH]c3ccccc13)C2", -8.312],
  ["CC(C)n1nc(CN(C)C)c2c1CN(C(=O)CC1CC1)CC2.O=C(O)C(F)(F)F", -12.31],
  ["CN(C)Cc1ccnc(C2CN(CCc3ccccc3)CCO2)n1 (centres undefined)", 102.6],
  ["CNc1ccc(CC2CCCN(C(=O)c3c(C)noc3C)C2)nn1 (centres undefined)", 118],
  ["CCNC(=O)CC1CC2(CCN(C(C)=O)CC2)c2cc(F)ccc21 (centres undefined)", -4.484],
  ["OCCN1CCN(Cc2coc(-c3cccc(Cl)c3)n2)CC1", 116.8],
  ["CC(C)n1nc(CN2CCCC2)c2c1CN(CC1CC1)CC2.O=C(O)C(F)(F)F.O=C(O)C(F)(F)F", 114.1],
  ["Cn1nc(CN2CCCC2)c2c1CN(C(=O)c1cnccn1)CC2", -11.87]
]}

Q: I would be grateful if you could share the reported Percent Effect for CC(C)=CCN(C)C1CCCN(Cc2noc(C)n2)C1 (centres undefined) .
Result: 0.8027

Q: I would be grateful if you could share the reported Percent Effect for `N[C@@H]1CCCN(C(=O)Cc2c[nH]c3ccccc23)[C@H]1c1ccccc1F` .
Result: 92.02

Q: I would be grateful if you could share the reported Percent Effect for `CCN(CC)C(=O)[C@@H]1C[C@@H](n2cc(-c3ccccn3)nn2)CN1` .
Result: -7.154

Q: I would be grateful if you could share the reported Percent Effect for `CCN1CCN(Cc2coc(-c3cccc(F)c3)n2)CC1` .
Result: 3.559

Q: I would be grateful if you could share the reported Percent Effect for `CS(=O)(=O)N1C[C@@H]2CC[C@H](C1)N(C(=O)Cn1ccc3ccccc31)C2` .
Result: -4.366

Q: I would be grateful if you could share the reported Percent Effect for `CC(C)NC(=O)[C@H]1C[C@@H]2[C@@H](C1)OCCN2Cc1nccs1.O=C(O)C(F)(F)F` .
Result: 0.8743

Q: I would be grateful if you could share the reported Percent Effect for CCOC1CC2(CCN(C(=O)COC)CC2)c2cc(F)ccc21 (centres undefined) .
Result: -4.976
